target: Tyrosine-protein kinase JAK1 (Homo sapiens); test: Induction of JAK1 degradation in human Jurkat cells at 1 uM incubated for 6 hrs by Western blot analysis; type: cell-based
Sequence (P23458 whole entry): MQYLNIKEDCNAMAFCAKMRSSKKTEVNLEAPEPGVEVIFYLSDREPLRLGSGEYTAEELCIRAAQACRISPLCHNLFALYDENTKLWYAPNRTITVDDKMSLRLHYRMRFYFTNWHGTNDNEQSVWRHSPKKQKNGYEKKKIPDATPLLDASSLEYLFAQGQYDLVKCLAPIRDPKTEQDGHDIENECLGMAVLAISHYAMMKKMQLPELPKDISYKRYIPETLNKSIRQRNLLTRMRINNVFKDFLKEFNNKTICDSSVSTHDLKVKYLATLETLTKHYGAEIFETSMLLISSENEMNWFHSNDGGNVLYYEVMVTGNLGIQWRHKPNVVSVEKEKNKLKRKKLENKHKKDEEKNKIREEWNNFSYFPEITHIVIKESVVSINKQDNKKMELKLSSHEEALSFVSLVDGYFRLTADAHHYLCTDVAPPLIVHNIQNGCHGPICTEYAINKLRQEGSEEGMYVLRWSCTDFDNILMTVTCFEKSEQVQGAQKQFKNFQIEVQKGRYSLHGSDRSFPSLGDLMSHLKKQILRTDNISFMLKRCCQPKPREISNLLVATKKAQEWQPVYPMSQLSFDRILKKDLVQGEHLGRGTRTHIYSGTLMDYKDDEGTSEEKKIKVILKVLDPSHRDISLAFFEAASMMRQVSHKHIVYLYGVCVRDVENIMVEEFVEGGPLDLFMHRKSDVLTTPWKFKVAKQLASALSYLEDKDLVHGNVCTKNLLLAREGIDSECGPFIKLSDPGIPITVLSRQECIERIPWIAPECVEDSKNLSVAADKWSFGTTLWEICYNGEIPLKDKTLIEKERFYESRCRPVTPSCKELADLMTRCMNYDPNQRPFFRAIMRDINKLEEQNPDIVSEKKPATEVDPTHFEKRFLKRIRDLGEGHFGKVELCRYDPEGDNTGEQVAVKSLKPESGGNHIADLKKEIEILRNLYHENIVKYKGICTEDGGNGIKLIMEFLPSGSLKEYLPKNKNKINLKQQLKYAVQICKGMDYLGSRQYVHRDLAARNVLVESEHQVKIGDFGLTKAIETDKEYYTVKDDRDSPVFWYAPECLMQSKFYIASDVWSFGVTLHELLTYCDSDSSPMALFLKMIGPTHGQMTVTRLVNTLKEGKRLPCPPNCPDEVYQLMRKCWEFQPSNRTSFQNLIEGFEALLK
Active and inactive are the calls of the source. No cut-off for these calls is given here.
Please answer using one outcome listed in active, inactive

stdin: Lab log entry: `CNC(=O)c1cnc(Nc2ccc(C(=O)NCCCCCCCC(=O)N[C@H](C(=O)N3C[C@H](O)C[C@H]3C(=O)NCc3ccc(-c4scnc4C)cc3)C(C)(C)C)cn2)cc1Nc1cccc(C(=O)NC)c1OC` — outcome as called in the assay?
stdout: inactive

stdin: Lab log entry: `CNC(=O)c1cnc(Nc2ccc(C(=O)NCCCCCCCCCCC(=O)N[C@H](C(=O)N3C[C@H](O)C[C@H]3C(=O)NCc3ccc(-c4scnc4C)cc3)C(C)(C)C)cn2)cc1Nc1cccc(C(=O)NC)c1OC` — outcome as called in the assay?
stdout: inactive

stdin: Lab log entry: `CNC(=O)c1cnc(Nc2ccc(C(=O)NCCCCCCCCCCCC(=O)N[C@H](C(=O)N3C[C@H](O)C[C@H]3C(=O)NCc3ccc(-c4scnc4C)cc3)C(C)(C)C)cn2)cc1Nc1cccc(C(=O)NC)c1OC` — outcome as called in the assay?
stdout: inactive

stdin: Lab log entry: `CNC(=O)c1cnc(Nc2ccc(C(=O)NCCCCCCCCCC(=O)N[C@H](C(=O)N3C[C@H](O)C[C@H]3C(=O)NCc3ccc(-c4scnc4C)cc3)C(C)(C)C)cn2)cc1Nc1cccc(C(=O)NC)c1OC` — outcome as called in the assay?
stdout: inactive

stdin: Lab log entry: `CNC(=O)c1cccc(Nc2cc(Nc3ccc(C(=O)NCCCCCCCCCC(=O)N[C@H](C(=O)N4C[C@H](O)C[C@H]4C(=O)NCc4ccc(-c5scnc5C)cc4)C(C)(C)C)cn3)ncc2C(N)=O)c1OC` — outcome as called in the assay?
stdout: active
